Source: patent US11236055B2

# assay_comment: Comparison of PK in DIO mice and lean mice
# Assay type: in vivo, mouse
# reported_conditions: mouse, plasma, po, Fasted Lean mice, oral administration; read-out: AUC (0-4 h)
attribute_measured: AUC(0-t) (ng·h/mL)
Kindly provide the numeric value in ng·h/mL only, without the unit symbol.

Problem: Request the reported AUC(0-t) associated with Cc1cnccc1-c1cccc(C(C)(C)N(CCCC(=O)NCCS(=O)(=O)O)S(=O)(=O)c2ccccc2C(F)(F)F)c1 [Compound 20AA]
Solution: 26

###

# assay_comment: Pharmacokinetic profile in mice
# Assay type: in vivo
# reported_conditions: mouse; fasted male Hilltop mice, 10 mg/kg oral gavage, plasma, mean of three mice
API: label(entry) gives Condition met if the entry's Cmax is strictly smaller than 3 ng/mL; on equality or larger values it gives Condition not met.

Recorded results for 5 compounds are shown here.
CCc1cnccc1-c1cccc([C@H](C)N(CCCC(=O)NC[C@@H](O)[C@H](O)[C@@H](O)[C@@H](O)CO)S(=O)(=O)c2cccc(Cl)c2C)c1 [Compound 20AN]
Condition met
CCc1cnccc1-c1cccc(C(C)(C)N(CCCC(=O)NCCS(=O)(=O)O)S(=O)(=O)c2cccc(Cl)c2C)c1 [Compound 20AC]
Condition not met
Cc1cnccc1-c1cccc(C2(N(CCCC(=O)NCCS(=O)(=O)O)S(=O)(=O)c3cccc(Cl)c3C)COC2)c1 [Compound 20BN]
Condition not met
Cc1cnccc1-c1cccc([C@H](C)N(CCCCC(=O)NCCS(=O)(=O)O)S(=O)(=O)c2cccc(Cl)c2C)c1 [Compound 20AH]
Condition met
Cc1cnccc1-c1cccc([C@H](C)N(CCCC(=O)NCCS(=O)(=O)NCCCC(=O)O)S(=O)(=O)c2ccccc2C(F)(F)F)c1 [Compound 20BK]
Condition met

Problem: I'd appreciate it if you could check whether Cc1cnccc1-c1cccc([C@H](C)N(CCCC(=O)NCCNS(=O)(=O)CCC(=O)O)S(=O)(=O)c2cccc(Cl)c2C)c1 [Compound 26AB] has Cmax smaller than 3 ng/mL.
Solution: Condition met

Problem: I'd appreciate it if you could check whether Cc1cnccc1-c1cccc([C@H](C)N(CCCC(=O)NCCNS(N)(=O)=O)S(=O)(=O)c2cccc(Cl)c2C)c1 has Cmax smaller than 3 ng/mL.
Solution: Condition not met

Problem: I'd appreciate it if you could check whether Cc1cnccc1-c1cccc(C(C)(C)N(CCCC(=O)NC[C@@H](O)[C@H](O)[C@@H](O)[C@@H](O)CO)S(=O)(=O)c2cccc(Cl)c2C)c1 [Compound 20AF] has Cmax smaller than 3 ng/mL.
Solution: Condition not met

###

# assay_comment: Portal vein versus systemic pharmacokinetics in hepatic portal vein cannulated rats
# Assay type: in vivo, rat
# reported_conditions: rat, portal vein plasma; Portal Vein bleed, portal vein cannulated male CD (SD) rats, 10 mg/kg oral
attribute_measured: Tmax

Problem: Request the reported Tmax associated with CCc1cnccc1-c1cccc([C@H](C)N(CCCC(=O)NCCS(=O)(=O)NCC(=O)O)S(=O)(=O)c2ccccc2C(F)(F)F)c1 [Compound 20BG]
Solution: 0.25 to 2 h

###

Each entry below carries its reported pEC50.
# measured_on: mouse TGR5 receptor (Mus musculus, UniProt Q80SS6)
# Construct: expressed in transfected cells; host or cells: HEK293-EBNA (293 c18, ATCC CRL10852), Hygromycin B selection
# Sequence (Q80SS6 1-329): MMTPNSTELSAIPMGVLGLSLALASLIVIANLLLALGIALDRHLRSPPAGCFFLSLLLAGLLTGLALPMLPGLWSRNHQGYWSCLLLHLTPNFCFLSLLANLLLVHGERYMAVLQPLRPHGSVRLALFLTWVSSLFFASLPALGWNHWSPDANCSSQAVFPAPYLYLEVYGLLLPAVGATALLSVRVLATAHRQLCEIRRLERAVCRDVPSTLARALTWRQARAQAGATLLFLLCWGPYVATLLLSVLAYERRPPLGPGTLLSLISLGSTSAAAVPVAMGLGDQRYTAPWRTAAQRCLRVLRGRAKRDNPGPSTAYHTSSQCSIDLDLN
# assay_comment: Mouse TGR5 cAMP production assay (HTRF, Cisbio cAMP HiRange)
# Format: cell-based
# reported_conditions: HEK293-EBNA cells overexpressing mouse TGR5, HTRF cAMP HiRange; coded A-D
pEC50: −log10 of the molar value.

Cc1cnccc1-c1cccc([C@H](C)N(CCCC(=O)NCCS(=O)(=O)NCCC(=O)O)S(=O)(=O)c2cccc(Cl)c2C)c1 [Compound 21AL]
> 7.00
COc1cnccc1-c1cccc(C(C)(C)NS(=O)(=O)c2ccc(C#N)cc2Cl)c1
4.52 to 6.00

Problem: Request the reported pEC50 associated with COc1cnccc1-c1cccc(C2CCCN2S(=O)(=O)c2ccccc2C(F)(F)F)c1 (centres unmarked) [Compound 40AA]
Solution: 4.52 to 6.00

Problem: Request the reported pEC50 associated with Cc1cnccc1-c1cccc(C(C)(C)N(CCCNC(=O)NCCS(N)(=O)=O)S(=O)(=O)c2cccc(Cl)c2C)c1 [Compound 29AB]
Solution: > 7.00

Problem: Request the reported pEC50 associated with CCc1cnccc1-c1cccc([C@H](C)N(CCCC(=O)O)S(=O)(=O)c2ccccc2C(F)(F)F)c1 [Compound 15AB]
Solution: > 7.00

Problem: Request the reported pEC50 associated with Cc1cnccc1-c1cccc(C(C)(C)N(CCCC(=O)NCCS(=O)(=O)NCC(=O)O)S(=O)(=O)c2cccc(Cl)c2C)c1 [Compound 20AW]
Solution: > 7.00
